Kindly state MIC for each of the entries shown.
- Test system: M. chelonae ATCC 35752
- Procedure Summary: MIC, resazurin microtiter assay
- Format: cell-based
- Test Parameters: Mycobacteroides chelonae, ATCC35752, Mueller Hinton II; read-out: MIC M. chelonae ATCC 35752

O=C(NC1CCCCCC1)c1cc2ccccc2[nH]1 [Compound 11, N-cycloheptyl-1H-indole-2-carboxamide] = > 32 µg/mL
Cc1cc(C)c2cc(C(=O)NC3CCC(C)CC3)[nH]c2c1 (stereo not drawn) = ≤ 0.06 µg/mL

Input line: Fill in the blank: the reported MIC of CCCCCCCNC(=O)c1cc2ccccc2[nH]1 [Compound 17, N-heptyl-1H-indole-2-carboxamide] is ____.
Output line: > 32 µg/mL

# credit: patent US10383848B2
